// provenance: patent US11771709B2

Exercise: state measured DC50 for each of the molecules provided.
- subject of test: ALK protein in SR (NPM-ALK) cells (Homo sapiens)
- Construct: NPM (nucleophosmin, NPM1, P06748) fusion partner; host or cells: SR (ALCL) cells; the other entry of the earlier key: NPM1 (P06748, Nucleophosmin)
- experiment description: Western blot of ALK protein level (degradation, DC50), ALK phosphorylation and downstream signaling in SR cells
- Format: cell-based
- particulars: ALK protein degradation in SR cells

molecule	DC50
COc1cc(N2CCC(N3CCN(C(=O)CCOCCOCCOCCC(=O)N[C@H](C(=O)N4C[C@H](O)C[C@H]4C(=O)NCc4ccc(-c5scnc5C)cc4)C(C)(C)C)CC3)CC2)ccc1Nc1ncc(Cl)c(Nc2ccccc2P(C)(C)=O)n1	100 to 500 nM

Field: DC50. Fill in for each record below.
1. COc1cc(N2CCC(N3CCN(C(=O)CCOCCOCCOCCOCCOCCC(=O)N[C@H](C(=O)N4C[C@H](O)C[C@H]4C(=O)NCc4ccc(-c5scnc5C)cc4)C(C)(C)C)CC3)CC2)ccc1Nc1ncc(Cl)c(Nc2ccccc2P(C)(C)=O)n1
2. COc1cc(N2CCC(N3CCN(C(=O)CCCCCCC(=O)N[C@H](C(=O)N4C[C@H](O)C[C@H]4C(=O)NCc4ccc(-c5scnc5C)cc4)C(C)(C)C)CC3)CC2)ccc1Nc1ncc(Cl)c(Nc2ccccc2P(C)(C)=O)n1
3. COc1cc(N2CCC(N3CCN(C(=O)CCOCCOCCOCCOCCOCCNc4cccc5c4C(=O)N(C4CCC(=O)NC4=O)C5=O)CC3)CC2)ccc1Nc1ncc(Cl)c(Nc2ccccc2P(C)(C)=O)n1 (stereo not drawn)
4. COc1cc(N2CCC(NC(=O)CCCNc3cccc4c3C(=O)N(C3CCC(=O)NC3=O)C4=O)CC2)ccc1Nc1ncc(Cl)c(Nc2ccccc2P(C)(C)=O)n1 (stereo not drawn)

1: 100 to 500 nM; 2: 1 to 10 nM; 3: 100 to 500 nM; 4: 1 to 10 nM

Field: DC50. Fill in for each record below.
1. COc1cc(N2CCC(N3CCN(C(=O)CCCCCCCC(=O)N[C@H](C(=O)N4C[C@H](O)C[C@H]4C(=O)NCc4ccc(-c5scnc5C)cc4)C(C)(C)C)CC3)CC2)ccc1Nc1ncc(Cl)c(Nc2ccccc2P(C)(C)=O)n1
2. COc1cc(N2CCC(N3CCN(C(=O)CCCCC(=O)N[C@H](C(=O)N4C[C@H](O)C[C@H]4C(=O)NCc4ccc(-c5scnc5C)cc4)C(C)(C)C)CC3)CC2)ccc1Nc1ncc(Cl)c(Nc2ccccc2P(C)(C)=O)n1
3. COc1cc(N2CCC(N3CCN(C(=O)CCCC(=O)N[C@H](C(=O)N4C[C@H](O)C[C@H]4C(=O)NCc4ccc(-c5scnc5C)cc4)C(C)(C)C)CC3)CC2)ccc1Nc1ncc(Cl)c(Nc2ccccc2P(C)(C)=O)n1
4. COc1cc(N2CCC(N3CCN(C(=O)CCCCCC(=O)N[C@H](C(=O)N4C[C@H](O)C[C@H]4C(=O)NCc4ccc(-c5scnc5C)cc4)C(C)(C)C)CC3)CC2)ccc1Nc1ncc(Cl)c(Nc2ccccc2P(C)(C)=O)n1

1: 1 to 10 nM; 2: 1 to 50 nM; 3: 1 to 10 nM; 4: 1 to 50 nM

* * *

- subject of test: ALK protein in SR (NPM-ALK) cells (Homo sapiens, UniProt Q9UM73)
- Construct: NPM (nucleophosmin, NPM1, P06748) fusion partner; host or cells: SR (ALCL) cells; the other entry of the earlier key: NPM1 (P06748, Nucleophosmin)
- Sequence (Q9UM73 with tags, fused parts or gaps): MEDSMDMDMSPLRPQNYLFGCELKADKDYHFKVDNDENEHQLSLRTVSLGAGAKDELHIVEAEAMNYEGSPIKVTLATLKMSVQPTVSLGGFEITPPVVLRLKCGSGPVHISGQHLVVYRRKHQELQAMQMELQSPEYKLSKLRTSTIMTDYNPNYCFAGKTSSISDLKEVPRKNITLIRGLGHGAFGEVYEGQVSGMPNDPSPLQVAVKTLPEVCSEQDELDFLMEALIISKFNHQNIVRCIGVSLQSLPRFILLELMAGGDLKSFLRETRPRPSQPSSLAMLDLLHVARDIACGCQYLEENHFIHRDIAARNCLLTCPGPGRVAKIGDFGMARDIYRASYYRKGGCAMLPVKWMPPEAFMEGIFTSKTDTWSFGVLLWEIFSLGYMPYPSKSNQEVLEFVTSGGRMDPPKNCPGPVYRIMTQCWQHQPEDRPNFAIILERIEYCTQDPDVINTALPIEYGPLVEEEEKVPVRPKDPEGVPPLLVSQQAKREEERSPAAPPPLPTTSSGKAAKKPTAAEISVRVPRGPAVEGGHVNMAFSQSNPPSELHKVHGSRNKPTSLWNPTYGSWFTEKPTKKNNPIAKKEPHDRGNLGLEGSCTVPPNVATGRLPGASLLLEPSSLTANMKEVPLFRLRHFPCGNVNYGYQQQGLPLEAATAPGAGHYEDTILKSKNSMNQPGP
- experiment description: Western blot of ALK protein level (degradation, DC50), ALK phosphorylation and downstream signaling in SR cells
- Assay type: cell-based
- particulars: ALK protein degradation in SR cells
readout name: DC50

Field: DC50. Fill in for each record below.
1. COc1cc(N2CCC(N3CCN(C(=O)CCC(=O)N[C@H](C(=O)N4C[C@H](O)C[C@H]4C(=O)NCc4ccc(-c5scnc5C)cc4)C(C)(C)C)CC3)CC2)ccc1Nc1ncc(Cl)c(Nc2ccccc2P(C)(C)=O)n1
2. COc1cc(N2CCC(NC(=O)CCCCCCCC(=O)N[C@H](C(=O)N3C[C@H](O)C[C@H]3C(=O)NCc3ccc(-c4scnc4C)cc3)C(C)(C)C)CC2)ccc1Nc1ncc(Cl)c(Nc2ccccc2P(C)(C)=O)n1
3. COc1cc(N2CCC(N3CCN(C(=O)CCCc4cn(CCCC(=O)N[C@H](C(=O)N5C[C@H](O)C[C@H]5C(=O)NCc5ccc(-c6scnc6C)cc5)C(C)(C)C)nn4)CC3)CC2)ccc1Nc1ncc(Cl)c(Nc2ccccc2P(C)(C)=O)n1
4. COc1cc(N2CCN(C(=O)CCCCCCCC(=O)N[C@H](C(=O)N3C[C@H](O)C[C@H]3C(=O)NCc3ccc(-c4scnc4C)cc3)C(C)(C)C)CC2)ccc1Nc1ncc(Cl)c(Nc2ccccc2P(C)(C)=O)n1
5. COc1cc(N2CCC(N3CCN(C(=O)CCCNc4cccc5c4C(=O)N(C4CCC(=O)NC4=O)C5=O)CC3)CC2)ccc1Nc1ncc(Cl)c(Nc2ccccc2P(C)(C)=O)n1 (stereo not shown)
6. CCc1cc2c(cc1N1CCN(C(=O)CCOCCOCCNc3cccc4c3C(=O)N(C3CCC(=O)NC3=O)C4=O)CC1)C(C)(C)c1[nH]c3cc(C#N)ccc3c1C2=O (stereo not shown)

1. 1 to 10 nM
2. 1 to 10 nM
3. 100 to 500 nM
4. 1 to 10 nM
5. 0.5 to 10 nM
6. 1 to 50 nM

Field: DC50. Fill in for each record below.
1. COc1cc(N2CCC(NC(=O)CCCCCCC(=O)N[C@H](C(=O)N3C[C@H](O)C[C@H]3C(=O)NCc3ccc(-c4scnc4C)cc3)C(C)(C)C)CC2)ccc1Nc1ncc(Cl)c(Nc2ccccc2P(C)(C)=O)n1
2. COc1cc(N2CCC(N3CCN(C(=O)CCCCCCNc4cccc5c4C(=O)N(C4CCC(=O)NC4=O)C5=O)CC3)CC2)ccc1Nc1ncc(Cl)c(Nc2ccccc2P(C)(C)=O)n1 (stereo not shown)
3. COc1cc(N2CCC(N3CCN(C(=O)CCCCNc4cccc5c4C(=O)N(C4CCC(=O)NC4=O)C5=O)CC3)CC2)ccc1Nc1ncc(Cl)c(Nc2ccccc2P(C)(C)=O)n1 (stereo not shown)
4. COc1cc(N2CCC(N3CCN(C(=O)CNc4cccc5c4C(=O)N(C4CCC(=O)NC4=O)C5=O)CC3)CC2)ccc1Nc1ncc(Cl)c(Nc2ccccc2P(C)(C)=O)n1 (stereo not shown)

1 to 10 nM
0.5 to 10 nM
0.1 to 0.5 nM
0.5 to 1 nM
